System: Prothrombin (Homo sapiens, UniProt P00734)
Entries and their pKi values follow.
Entry type: numeric. Quantity: pKi, the -log10 of concentration in molar units.

Smiles notation	pKi
Nc1ccc(C[C@H](NS(=O)(=O)c2cnccc2N[C@@H](Cc2ccccc2)CN2CCCCC2)C(=O)N2CCC(CCF)CC2)cc1	7.60
CCCCNC[C@H](Cc1ccccc1)Nc1ccncc1S(=O)(=O)N[C@@H](Cc1ccc(N)cc1)C(=O)N1CCC(CCF)CC1	7.37
CNc1ccc(C[C@H](NS(=O)(=O)c2cnccc2N[C@H](CO)Cc2ccccc2)C(=O)N2CCC(CCF)CC2)cc1	7.92
Nc1ccc(C[C@H](NS(=O)(=O)c2cnccc2N[C@H](CO)Cc2ccccc2)C(=O)N2CCC(CCO)CC2)cc1	6.20
COc1ccc(C[C@@H](CO)Nc2ccncc2S(=O)(=O)N[C@@H](Cc2ccc(N)cc2)C(=O)N2CCC(CCF)CC2)cc1OC	7.31

Note: attention shifts to another entry.
# C[C@H](Cc1ccccc1)Nc1ccncc1S(=O)(=O)N[C@@H](Cc1ccc(N)cc1)C(=O)N1CCC(CCF)CC1 with Prothrombin (Homo sapiens, UniProt P00734): pKi is 7.74

Origin of the recorded values: ChEMBL document CHEMBL1131556
